Target: BRN2 (Homo sapiens, UniProt P20265)
Sequence (P20265 1-443): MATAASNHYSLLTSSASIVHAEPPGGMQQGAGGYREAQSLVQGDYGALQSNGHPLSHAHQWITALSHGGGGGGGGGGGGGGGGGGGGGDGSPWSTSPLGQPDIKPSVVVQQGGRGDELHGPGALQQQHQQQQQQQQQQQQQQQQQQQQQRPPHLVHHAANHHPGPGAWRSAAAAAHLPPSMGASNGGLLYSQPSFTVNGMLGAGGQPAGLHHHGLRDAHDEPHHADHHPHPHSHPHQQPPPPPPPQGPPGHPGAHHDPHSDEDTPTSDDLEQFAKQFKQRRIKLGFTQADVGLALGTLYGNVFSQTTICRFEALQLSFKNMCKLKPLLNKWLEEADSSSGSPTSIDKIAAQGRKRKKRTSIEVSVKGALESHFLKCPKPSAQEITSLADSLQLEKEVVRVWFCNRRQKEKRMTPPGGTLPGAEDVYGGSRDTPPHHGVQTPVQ
Protocol description: cell-based
Condition notes: read-out: % BRN2 Inhibition (10 μM), 10 μM compound, 24 hours, 42D^ENZR cells stably expressing BRN2-luciferase reporter; negative = activation
Lab note: compare inhibition at 10 µM against 20%. Equal or greater, write true (1). Smaller, write false (0).

Example results:
{"columns": ["Compound", "Answer label"],
 "data": [
  ["Cl.Cn1c(-c2ccc(C3=CCNCC3)o2)nc2ccc(C(F)(F)F)cc21 [VPC-18-70, hydrochloride]", "true (1)"],
  ["c1ccc2c(c1)CCC2c1cnn(-c2nc3ccccc3s2)c1 (centres unmarked)", "false (0)"],
  ["c1ccc(-c2nc(-c3cc4ccccc4o3)cs2)cc1", "true (1)"]
]}

Request: Please check the record `Cn1c(-c2ccc(-c3ccc(F)cc3F)o2)nc2ccccc21` and state if its inhibition at 10 µM is at or above 20%.
Response: true (1)

Request: Please check the record `Fc1ccc(-c2nc(-c3nc4ccc(C(F)(F)F)cc4o3)cs2)o1` and state if its inhibition at 10 µM is at or above 20%.
Response: false (0)

###

Protocol description: Liver microsome metabolic stability, MLM
Type: in vitro ADME
Condition notes: mouse, liver microsomes, pH 7.4; MLM (single value or second of two), 1 μM compound, 0.25 mg/mL protein; read-out: T1/2 in (mins HLM/MLM)
Provide the recorded half-life at 1 µM for the entries that follow.
Answers are plain numbers, in min.

See these solved cases before continuing.
{"columns": ["Molecule", "Unit tag", "Recorded value"],
 "data": [
  ["FC(F)(F)c1ccc2nc(-c3ccc(-c4ccccc4)o3)[nH]c2c1 [VPC-18-87]", "min", 40],
  ["Cn1cccc1-c1nc(-c2cc3ccc(Cl)cc3o2)cs1 [VPC-18-139]", "min", 30],
  ["Cn1c(-c2ccc(-c3ccccc3)o2)nc2ccc(Cl)cc21 [VPC-18-42]", "min", 11],
  ["Fc1c(Cl)ccc2cc(-c3csc(-c4ccc[nH]4)n3)oc12 [VPC-18-166]", "min", 10],
  ["Cc1c(-c2csc(-c3ccc[nH]3)n2)oc2cc(Cl)ccc12 [VPC-18-155]", "min", 31]
]}

Here are 4 molecules. What values of half-life at 1 µM were reported for them?
1. N#Cc1c(-c2csc(-c3ccco3)n2)oc2ccccc12 [VPC-18-88]
2. FC(F)(F)c1ccc2cc(-c3csc(-c4ccco4)n3)oc2c1 [VPC-18-51]
3. FC(F)(F)c1ccc2cc(-c3csc(-c4cc[nH]c4)n3)oc2c1 [VPC-18-111]
4. Clc1ccc2cc(-c3cncc(-c4ccc[nH]4)n3)oc2c1 [VPC-18-130]

Response:
[9, 16, 48, 9]
